Origin of the recorded values: patent US8916711B2

Listed here are molecules together with their documented CC50.
- Test system: Melanoma cell lines
- runDescription: NCI in vitro cytotoxicity, whole panel
- Type: cell-based
- conditionParameters: Homo sapiens; Melanoma; average of six to eight cell lines; read-out: Log10 LC50 (converted)
Field: numeric (µM). Do not append units.

Observe how each entry below is paired with its result.
[[record]]
entrysmiles = "COc1ccc(-c2nc3sccn3c2/C=C/C(=O)c2cc(OC)c(OC)c(OC)c2)cc1"
measurementunits = "µM"
observedmeasurement = 70.8

[[record]]
entrysmiles = "COc1cc(C(=O)/C=C/c2c(C(F)(F)F)nc3sccn23)cc(OC)c1OC"
measurementunits = "µM"
observedmeasurement = 9.33


Give reported CC50 value for COc1cc(C(=O)/C=C/c2c(-c3ccc(F)cc3)nc3sccn23)cc(OC)c1OC
42.7

---

- Test system: Ovarian cancer cell lines
- runDescription: NCI in vitro cytotoxicity, whole panel
- Assay type: cell-based
- conditionParameters: Homo sapiens; exposure period of at least 48 hrs; read-out: GI50, range over ovarian cell lines
Below: a set of entries, each annotated with reported GI50.

Some solved cases for reference:
[[record]]
compound = "COc1cc(C(=O)/C=C/c2c(-c3ccc(F)cc3)nc3sccn23)cc(OC)c1OC"
assayedtarget = "Ovarian cancer cell lines"
observedmeasurement = "1040 to 3780 nM"

[[record]]
compound = "COc1cc(C(=O)/C=C/c2c(C(F)(F)F)nc3sccn23)cc(OC)c1OC"
assayedtarget = "Ovarian cancer cell lines"
observedmeasurement = "1860 to 3080 nM"

[[record]]
compound = "COc1ccc(C(=O)/C=C/c2c(C(F)(F)F)nc3sccn23)cc1OC"
assayedtarget = "Ovarian cancer cell lines"
observedmeasurement = "1880 to 4180 nM"

[[record]]
compound = "COc1cc(C(=O)/C=C/c2c(-c3ccc(F)cc3)nc3sc(C)cn23)cc(OC)c1OC [Compound 19e]"
assayedtarget = "Ovarian cancer cell lines"
observedmeasurement = "≥ 2280 nM"


Provide GI50 value for the following compound: COc1ccc(-c2nc3sccn3c2/C=C/C(=O)c2cc(OC)c(OC)c(OC)c2)cc1
210 to 4050 nM

---

- Test system: Non-small-cell lung cancer cell lines
- runDescription: NCI in vitro cytotoxicity, whole panel
- Type: cell-based
- conditionParameters: Homo sapiens; exposure period of at least 48 hrs; read-out: GI50, range over lung cell lines
quantityMeasured: GI50

[[record]]
compound = "COc1cc(C(=O)/C=C/c2c(-c3ccc(F)cc3)nc3sccn23)cc(OC)c1OC"
observedmeasurement = "1050 to 3630 nM"

[[record]]
compound = "COc1cc(C(=O)/C=C/c2c(C(F)(F)F)nc3sccn23)cc(OC)c1OC"
observedmeasurement = "1650 to 7000 nM"

[[record]]
compound = "COc1cc(C(=O)/C=C/c2c(-c3ccc(F)cc3)nc3sc(C)cn23)cc(OC)c1OC [Compound 19e]"
observedmeasurement = "150 to 85100 nM"

[[record]]
compound = "COc1ccc(C(=O)/C=C/c2c(C(F)(F)F)nc3sccn23)cc1OC"
observedmeasurement = "1940 to 6950 nM"


Proceed to the following item.
Read off the recorded GI50 for COc1ccc(-c2nc3sccn3c2/C=C/C(=O)c2cc(OC)c(OC)c(OC)c2)cc1
240 to 3700 nM

---

- System: Renal cancer cell lines
- runDescription: NCI in vitro cytotoxicity, whole panel
- Assay type: cell-based
- conditionParameters: Homo sapiens; Renal; average of six to eight cell lines; read-out: Log10 GI50 (converted)
Rule: GI50 below 2 µM gives T. Equal to or above 2 µM gives F.

Study these solved cases before continuing.
[[record]]
compound = "COc1ccc(C(=O)/C=C/c2c(C(F)(F)F)nc3sccn23)cc1OC"
assayedtarget = "Renal cancer cell lines"
classification = "F"

[[record]]
compound = "COc1cc(C(=O)/C=C/c2c(-c3ccc(F)cc3)nc3sccn23)cc(OC)c1OC"
assayedtarget = "Renal cancer cell lines"
classification = "T"

[[record]]
compound = "COc1cc(C(=O)/C=C/c2c(C(F)(F)F)nc3sccn23)cc(OC)c1OC"
assayedtarget = "Renal cancer cell lines"
classification = "T"


GI50 strictly < 2 µM for this compound? COc1cc(C(=O)/C=C/c2c(-c3ccc(F)cc3)nc3sc(C)cn23)cc(OC)c1OC [Compound 19e]
F

Record COc1ccc(-c2nc3sccn3c2/C=C/C(=O)c2cc(OC)c(OC)c(OC)c2)cc1 : is its GI50 strictly below 2 µM?
F

---

Parameter: melting point. Scope: all listed entries.

Below: 2 compounds and their reported melting point.
[[record]]
compound = "COc1ccc(-c2nc3sccn3c2/C=C/C(=O)c2ccc[nH]2)cc1 [Compound 17a]"
quantitymeasured = "melting point"
observedmeasurement = "177 to 179 °C"

[[record]]
compound = "COc1ccc(C(=O)/C=C/c2c(-c3ccc(F)cc3)nc3sccn23)cc1OC"
quantitymeasured = "melting point"
observedmeasurement = "221 to 223 °C"


Input Cc1ccc(C(=O)/C=C/c2c(-c3ccc(F)cc3)nc3sccn23)cc1C , output reported melting point.
210 to 213 °C

---

Quick note: these are GI50 numbers for system: HL-60(TB)
API: value field is a number in nM; no unit string.

[[record]]
compound = "COc1ccc(C(=O)/C=C/c2c(C(F)(F)F)nc3sccn23)cc1OC"
assayedtarget = "HL-60(TB)"
observedmeasurement = 1000


Name the recorded GI50 of the item COc1ccc(-c2nc3sccn3c2/C=C/C(=O)c2cc(OC)c(OC)c(OC)c2)cc1 in your answer.
1660

Consider the compound COc1cc(C(=O)/C=C/c2c(C(F)(F)F)nc3sccn23)cc(OC)c1OC . State its measured GI50.
1830

Look up and report measured GI50 for this entry: COc1cc(C(=O)/C=C/c2c(-c3ccc(F)cc3)nc3sccn23)cc(OC)c1OC
1770

Fill in GI50 for record COc1cc(C(=O)/C=C/c2c(-c3ccc(F)cc3)nc3sc(C)cn23)cc(OC)c1OC [Compound 19e]
2800

---

- System: Breast cancer cell lines
- runDescription: NCI in vitro cytotoxicity, whole panel
- Format: cell-based
- conditionParameters: Homo sapiens; Breast; average of six to eight cell lines; read-out: Log10 GI50 (converted)
quantityMeasured: GI50 (nM)
Just the number in nM, nothing appended.

Worked cases, answers included:
[[record]]
compound = "COc1ccc(C(=O)/C=C/c2c(C(F)(F)F)nc3sccn23)cc1OC"
assayedtarget = "Breast cancer cell lines"
measurementunits = "nM"
observedmeasurement = 2950

[[record]]
compound = "COc1ccc(-c2nc3sccn3c2/C=C/C(=O)c2cc(OC)c(OC)c(OC)c2)cc1"
assayedtarget = "Breast cancer cell lines"
measurementunits = "nM"
observedmeasurement = 2510


Using the record for COc1cc(C(=O)/C=C/c2c(-c3ccc(F)cc3)nc3sccn23)cc(OC)c1OC , state its measured GI50.
2820

Specify reported GI50 for the compound shown: COc1cc(C(=O)/C=C/c2c(C(F)(F)F)nc3sccn23)cc(OC)c1OC
2090

Supply measured GI50 of COc1cc(C(=O)/C=C/c2c(-c3ccc(F)cc3)nc3sc(C)cn23)cc(OC)c1OC [Compound 19e] in your reply.
3630

---

- Tested on: Colon cancer cell lines
- runDescription: NCI in vitro cytotoxicity, whole panel
- Type: cell-based
- conditionParameters: Homo sapiens; Colon; average of six to eight cell lines; read-out: Log10 GI50 (converted)
Reported GI50 values follow for various compounds
Return type: number; implicit unit µM.

[[record]]
compound = "COc1cc(C(=O)/C=C/c2c(-c3ccc(F)cc3)nc3sc(C)cn23)cc(OC)c1OC [Compound 19e]"
quantitymeasured = "GI50"
measurementunits = "µM"
observedmeasurement = 5.01

[[record]]
compound = "COc1ccc(C(=O)/C=C/c2c(C(F)(F)F)nc3sccn23)cc1OC"
quantitymeasured = "GI50"
measurementunits = "µM"
observedmeasurement = 2.45

[[record]]
compound = "COc1ccc(-c2nc3sccn3c2/C=C/C(=O)c2cc(OC)c(OC)c(OC)c2)cc1"
quantitymeasured = "GI50"
measurementunits = "µM"
observedmeasurement = 2.63


Given the compound COc1cc(C(=O)/C=C/c2c(-c3ccc(F)cc3)nc3sccn23)cc(OC)c1OC , write its reported GI50.
2.63

Kindly indicate its recorded GI50. Item: COc1cc(C(=O)/C=C/c2c(C(F)(F)F)nc3sccn23)cc(OC)c1OC
1.62

---

- Test system: CCRF-CEM
- runDescription: NCI in vitro cytotoxicity (SRB, 48 h), Leukemia panel
- Assay type: cell-based
- conditionParameters: Homo sapiens, 48 h exposure
quantityMeasured: GI50 (nM)
Quick reminder: number only, in nM, skip the unit.

[[record]]
compound = "COc1ccc(-c2nc3sccn3c2/C=C/C(=O)c2cc(OC)c(OC)c(OC)c2)cc1"
observedmeasurement = 3080

[[record]]
compound = "COc1cc(C(=O)/C=C/c2c(-c3ccc(F)cc3)nc3sccn23)cc(OC)c1OC"
observedmeasurement = 2230

[[record]]
compound = "COc1cc(C(=O)/C=C/c2c(C(F)(F)F)nc3sccn23)cc(OC)c1OC"
observedmeasurement = 1240

[[record]]
compound = "COc1ccc(C(=O)/C=C/c2c(C(F)(F)F)nc3sccn23)cc1OC"
observedmeasurement = 2330


Return the recorded GI50 value; entry: COc1cc(C(=O)/C=C/c2c(-c3ccc(F)cc3)nc3sc(C)cn23)cc(OC)c1OC [Compound 19e]
7190
